Origin of values: ChEMBL document CHEMBL1201862

# System: ACHN
# Test description: NCI tumour cell line growth inhibition, 48 h
Calls of active or inactive are those of the source. Cut-off read from the data, not from the text of the source: active = GI50 up to about 1.1 µM and inactive = higher.
Outcome field: choose from Y (active), N (inactive)

# count of solved cases: 2
{"Molecule": "COc1cc(Br)cc2cc(-c3cn4c(n3)sc3ccccc34)c(=O)oc12", "Category": "N"}
{"Molecule": "O=[N+]([O-])c1cccc(C(O)/C(=N/Nc2ccccc2)C2Nc3ccc([N+](=O)[O-])cc3N=C2O)c1 (stereo unspecified)", "Category": "N"}

(Q) Tell me the assay call for "CC[n+]1c(/C=C/c2ccc(N(CCCl)CCCl)cc2)ccc2cc(NC(=O)/C=C/c3ccccc3)ccc21" please.
(A) Y

(Q) What classification did "COc1c2cc(C(C)(C)C)cc1CSCc1cc(C(C)(C)C)cc(c1OC)CCCCC2" end up with in this test?
(A) N

(Q) Which outcome was assigned to O=C1CSC(c2ccccc2O)N1c1ccc(-n2c(-c3ccccc3)nc3ccccc3c2=O)cc1 (stereo unspecified) in this test?
(A) N

(Q) How did this test come out for "Cn1cnc(C(N)=[Se])c1N" ?
(A) N

(Q) Status in this test for "c1cncc(CSc2ncnc3[nH]cnc23)c1" ?
(A) N

(Q) Each molecule tested received a call. Report the one for CC12CC(=O)OC(Cc3ccccc31)O2 (stereo unspecified) .
(A) N

(Q) # outcome recorded in this test, key = Fc1cccc(C2SCc3nc4ccccc4n32)c1 (stereo unspecified)
(A) N

(Q) Hi, sorry to bother you, what did the test record for "N#C/C=C(/NC(=O)Nc1ccccc1)N1CCCC1" ?
(A) N

(Q) Hi team, can someone confirm the assay call for "CCOC(=O)NC(Nc1ccc(C)cc1)(C(F)(F)F)C(F)(F)F" ?
(A) N

----------
# System: SN12C
# Test description: NCI tumour cell line growth inhibition, 48 h
The source made the active and inactive calls. Rule as the data show it: active = GI50 up to about 1.1 µM and inactive = higher.
The reply should name one outcome from t for active, f for inactive

{"Compound": "O=C1c2ccccc2C(=O)N1C/C=N/NS(=O)(=O)c1ccc(Br)cc1", "Category": "f"}

Turning to the following compound.
(Q) For this compound, state the assay outcome: "COc1cc2c(c(OC)c1OC)-c1ccc(OC)c(=O)cc1[C@@H](NC(=O)c1ccccc1)CC2"
(A) t

----------
# System: TK-10
# Test description: NCI tumour cell line growth inhibition, 48 h
Calls of active or inactive are those of the source. No stated cut-off is given here; in the data, active = GI50 up to about 1.1 µM and inactive = higher.
Catalogue of GI50 readings, one per entry.

{"Compound": "N#C/C(=C\\c1ccc(Cl)cc1)c1nc2ccccc2c(=O)[nH]1", "GI50": "76 µM (inactive)"}
{"Compound": "COc1cc2c(oc(=O)c3c4oc([Si](C)(C)C)cc4cc(OC)c23)c2cccc(OCc3ccccc3)c12", "GI50": "37.2 µM (inactive)"}
{"Compound": "NC(=O)C#CC#CC#CCO", "GI50": "1.61 µM (inactive)"}
{"Compound": "COc1cc2c(c(OC)c1OC)CCNC2C1=C(O)COC1=O (stereo not given)", "GI50": "> 100 µM (inactive)"}
{"Compound": "CCCC1(CCC)c2cc(/C=N\\O)ccc2-c2ccc(-c3ccc(C(C)(C)C)cc3)cc21", "GI50": "39 µM (inactive)"}
{"Compound": "O=[N+]([O-])c1cccc(C(O)/C(=N/Nc2ccccc2)C2Nc3ccc([N+](=O)[O-])cc3N=C2O)c1 (stereo not given)", "GI50": "> 100 µM (inactive)"}
{"Compound": "[N-]=[N+]=NC1C2CC3C4CC5CC3[C@H](C2)C(C5)C41 (stereo not given in full)", "GI50": "> 100 µM (inactive)"}
{"Compound": "N#Cc1c(N)c2c(c(-c3ccccc3)c1-c1ccccc1)C(=O)N(NC(=S)Nc1ccccc1)C2=O", "GI50": "84.5 µM (inactive)"}

(Q) # lookup: GI50 of "CCCCN/C(=N/C#N)NCc1ccccc1"
(A) > 100 µM (inactive)

(Q) Please look up its GI50: "Cc1c(C)c(C)c(-n2[nH]c(=O)n(C)c2=O)c(C)c1C"
(A) > 100 µM (inactive)

----------
# System: SNB-19
# Test description: NCI tumour cell line growth inhibition, 48 h
Activity calls are given as the source filed them. Rule as the data show it: active = GI50 up to about 1.1 µM and inactive = higher.
Result category, one only: active, inactive

Some solved cases for reference:
{"Molecule": "O=Cc1ccc2c(c1I)OCO2", "Category": "inactive"}
{"Molecule": "Cc1nn2c(C(=O)N/N=C/c3ccccc3O)c(C)nc2s1", "Category": "inactive"}
{"Molecule": "c1cncc(CSc2ncnc3[nH]cnc23)c1", "Category": "inactive"}
{"Molecule": "COc1ccc(-c2cn3ccsc3n2)cc1", "Category": "inactive"}
{"Molecule": "N=C(N)N/N=C/c1c(-c2ccc(N)cc2)nc2sccn12", "Category": "inactive"}
{"Molecule": "COc1ccc(C2SC(=N)Nc3c2c(C)nn3C(=O)c2ccccc2O)cc1OC (configuration not stated)", "Category": "inactive"}
{"Molecule": "O=C(NN1C(=O)CSC1c1ccc(C(F)(F)F)cc1)c1ccncc1 (configuration not stated)", "Category": "inactive"}
{"Molecule": "C=C(C)[C@@H]1CC[C@]2(C(=O)O)CC[C@]3(C)[C@H](CC[C@@H]4[C@@]5(C)CC[C@H](O)C(C)(C)[C@@H]5CC[C@]43C)[C@@H]12", "Category": "inactive"}
{"Molecule": "Nc1ccc2c(c1)Nc1c3ccccc3nc3cccc-2c13", "Category": "inactive"}
{"Molecule": "Cn1c(N2CCCC2)c(C=O)c(=O)n(C)c1=O", "Category": "inactive"}

(Q) Which outcome did this test record for the molecule "CCOC(=O)C(=O)Nc1nc2c(s1)C(=O)c1ccccc1C2=O" ?
(A) inactive

(Q) # outcome recorded in this test, key = CC(C)(Cl)C(Cl)CC/C(CBr)=C(\Cl)CCl (configuration not stated)
(A) inactive

(Q) Outcome? CC(C)c1cccc(C(C)C)c1NC(=O)/C(CC(=O)CC(c1ccccc1)c1c(O)c2ccccc2oc1=O)=N/O (configuration not stated)
(A) inactive

(Q) Given "COc1ccc2c(C)cc(=O)oc2c1OC" , state the outcome it received in this test.
(A) inactive

(Q) Name the outcome recorded for "CN[C@@H]1C[C@H]2O[C@@](C)([C@@H]1OC)n1c3ccccc3c3c4c(c5c6ccccc6n2c5c31)C(=O)N[C@@H]4O" in the assay.
(A) active

(Q) Fill in: this test's call for CC(C)=NNC1=NC(C)(C)P(=O)(NNc2ncccn2)S1 (configuration not stated) is ___
(A) inactive

----------
# Tested on: NCI-H460
# Test description: NCI tumour cell line growth inhibition, 48 h
Calls of active or inactive are those of the source. Cut-off read from the data, not from the text of the source: active = GI50 up to about 1.1 µM and inactive = higher.
Just give me one of these, please: active, inactive

(Q) Field: outcome | Entry: COC(=O)[C@H]1ON2O[C@H](OC3CCCC[C@@H]3c3ccccc3)C[C@@H]3CC[C@H]1[C@@]32C (some centres not stated)
(A) inactive

(Q) Short answer needed: outcome of this test for "C=CCSC(C)=O" ?
(A) inactive

(Q) What did the test return for "CCOc1ncn(-c2ccc(NC(=S)Nc3cccc(O)c3)cc2)n1" ?
(A) inactive

(Q) Test call for this compound, please: "O=Cc1ccc(-c2nccc3c2[nH]c2ccccc23)o1"
(A) inactive

(Q) Dear colleague, could you share the recorded outcome for "O=C(O)C#Cc1ccc([N+](=O)[O-])cc1" when you have a moment?
(A) inactive

----------
Recorded GI50 for the following molecules
# Test system: XF498
# Test description: NCI tumour cell line growth inhibition, 48 h
Activity calls are given as the source filed them. Rule as the data show it: active = GI50 up to about 1.1 µM and inactive = higher.

{"Molecule": "Cc1[nH]c2ccccc2c1/C=C/c1c(C)[nH]c2ccccc12", "GI50": "> 100 µM (inactive)"}
{"Molecule": "Cc1ccc(/N=C/c2ccc3c(c2)OCO3)cc1C", "GI50": "> 100 µM (inactive)"}
{"Molecule": "N#CC1C(=O)NC(=O)C1=O (stereo not drawn)", "GI50": "> 100 µM (inactive)"}
{"Molecule": "CCOC(=O)c1ccc(/C(C)=N/NC(N)=S)cc1", "GI50": "> 100 µM (inactive)"}
{"Molecule": "N#C/C(=C1\\OC(=O)C(c2ccc(Br)cc2)=C1O)c1ccc(Br)cc1", "GI50": "12.9 µM (inactive)"}

(Q) Recorded GI50 for "COC(=O)CCC(=O)N1Cc2cc(C)ccc2N(C(=O)CCC(=O)OC)Cc2cc(C)ccc21" , please?
(A) > 100 µM (inactive)

(Q) Find the recorded GI50 belonging to "CC1(C)OC[C@H](C(=N)OCc2ccccc2)O1" and report it.
(A) > 100 µM (inactive)

(Q) Can you share its GI50? I mean this molecule: "CCc1cc(C)cc2[n+]1CC=C2.[O-][Cl+3]([O-])([O-])[O-]"
(A) 2.56 µM (inactive)

----------
# System: A498
# Test description: NCI tumour cell line growth inhibition, 48 h
Active and inactive are the calls of the source. No stated cut-off is given here; in the data, active = GI50 up to about 1.1 µM and inactive = higher.
The reply should name one outcome from Yes = active, No = inactive

Solved cases (2 shown):
{"Molecule": "CCN1/C(=C/C(C)=C/c2sc3ccccc3[n+]2CC)Sc2ccccc21", "Category": "Yes"}
{"Molecule": "CC1(C)OC[C@H](C(=N)OCc2ccccc2)O1", "Category": "No"}

(Q) Status in this test for O=C1OS2(OC(=O)c3cccc4cccc2c34)c2ccccc21 (stereo unspecified) ?
(A) No

(Q) What is the recorded call for this molecule in the test? "Cc1ccc(S(=O)(=O)N/N=C/C(C)C)cc1"
(A) No

(Q) Could you kindly confirm the outcome this assay logged for O=C(Nc1nnc(S)[nH]1)C(=O)C(C(=O)c1ccc2ccccc2c1)C1OC(=O)c2ccccc21 (stereo unspecified) ?
(A) No

(Q) Could you kindly confirm the outcome this assay logged for "O=Cc1ccc2c(c1I)OCO2" ?
(A) No

(Q) Outcome logged for "CN(C)CCNc1ccccn1" in this assay:
(A) No

(Q) Called result for CC(=O)OC1CC2C(=O)C(=O)C1(C)C2(C)C (stereo unspecified)
(A) No

(Q) Give the logged outcome of this assay for the following molecule: ClC1=C(Cl)C2OC3C=CCC3OC2C(Cl)=C1Cl (stereo unspecified)
(A) No

(Q) How was "COc1ccc(/C=C/c2ccnc3ccccc23)c(OC)c1" classified in this test?
(A) No

(Q) Query: recorded result category for CCOP(=O)(CC1CC(O)(CNc2cc(Cl)nc(N)n2)C1)OCC (stereo unspecified) in this test
(A) No

(Q) What classification did "Cc1nn(C)c(=O)c2nn(-c3ccccc3)c(C)c12" end up with in this test?
(A) No

(Q) Can you look up the reported call for "COc1ccc(Nc2nc(N)c(C(=O)c3ccccc3)s2)cc1" for me?
(A) No

(Q) Name the outcome recorded for "CCOc1ccc(/C=N\N2C(=O)c3ccccc3C2=O)cc1" in the assay.
(A) No

(Q) Check the results log: what was the call for CC1S/C(=N/c2nnc(-c3ccccc3)o2)NC1=O (stereo unspecified) ?
(A) No

(Q) So what was the verdict on C=C(C)[C@@H]1CC[C@]2(C(=O)O)CC[C@]3(C)[C@H](CC[C@@H]4[C@@]5(C)CC[C@H](O)C(C)(C)[C@@H]5CC[C@]43C)[C@@H]12 [BETULINIC ACID] in this test?
(A) No

(Q) Please indicate how the test categorized COC(=O)[C@H]1ON2O[C@H](OC3CCCC[C@@H]3c3ccccc3)C[C@@H]3CC[C@H]1[C@@]32C (stereo partly specified) .
(A) No

(Q) Just curious, what result did "C/C=C/[C@@H]1O[C@H](CC#C[Si](C)(C)C)[C@@]2(C=O)C(C)=CC[C@H](C(C)C)[C@@H]12" get here?
(A) No

(Q) What outcome does the record of this test show for "CC(=O)c1ccc(NC(=O)/C(Cc2ccccn2)=N/NC(=O)C[N+](C)(C)C)cc1" ?
(A) No

(Q) Please let me know the test result on file for CCOC(=O)n1c(=O)nc2c3c(ncn21)Oc1c(c(-c2ccccc2)nn1-c1ccccc1)C3c1ccc(Cl)cc1 (stereo unspecified) .
(A) No

(Q) Entry "O=S(=O)(c1cc(Cl)ccc1Cl)N1CCN(c2ccc(Cl)c(Cl)c2)CC1" : call = ?
(A) No
